experiment: basal RPMI8226 viability, no added stimulus, profiling panel, cell-based, calcein-AM fluorescence, 48 h, PK04 Diversity Set (AID 1166); conditions: RPMI8226 myeloma viability, higher = more signal;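 note: cells grown under basal conditions without added stimulus; test concentration not given here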
Would you mind telling me the reported z-score of each entry?
Numbers only.

compound: C=CCNC(=O)[C@H]1[C@@H]2C(=O)O[C@@H](c3ccccc3)[C@@H](c3ccccc3)N2[C@@H](c2ccc(O)cc2)[C@]12C(=O)N(C(=O)OCCOC)c1ccc(C#CCCO)cc12
z-score: 0.233
--
compound: [N-]=[N+]=NCc1ccccc1C[C@]1(C(=O)NCCN2CCOCC2)N=C(c2ccc(OCCCO)cc2)O[C@H]1c1ccccc1N=[N+]=[N-]
z-score: -0.806

Consider now this further compound.
Consider the compound shown here: C=CCC(OC(C)=O)[C@@H]1[C@@H](N(Cc2cccc3ccccc23)C(=O)c2ccc(C)cc2)c2cc(OCCCO)ccc2N1C(=O)Cc1ccc(OC)cc1 (stereo partly drawn) What is its recorded z-score? 0.943

* * *

test system: Wnt5a (protein binding on small-molecule microarray); assay: Wnt5a binders on small-molecule microarray, primary screen, biophysical, 635/667 nm fluorescence (AID 1142); conditions: 635 nm fluorescence, higher = more signal;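 note: fluorescence read at 667 nm with signal to noise per printed feature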
// condition not met strictly below 0.03 in composite z-score; condition met otherwise

Please review the entries below; each comes with its answer.
molecule: CC(=O)Nc1cc(Br)ccc1C(=O)O
qualitative_label: condition not met

molecule: O=C1N(CCS(=O)(=O)c2ccccc2)Cc2ccccc2[C@H]2OC(c3ccc(OCCCO)cc3)=N[C@@]12CCS(=O)(=O)c1ccccc1
qualitative_label: condition met

Is it the case that CC(C)(C)N1CC=CC23O[C@@H]4C=CCOC(=O)[C@@H]4[C@H]2C(=O)N(CCCCCO)[C@@H]3C1=O (stereo partly drawn) has composite z-score reaching or exceeding 0.03? condition not met

Is it the case that `[N-]=[N+]=NCc1ccccc1C[C@]1(C(=O)NCCN2CCOCC2)N=C(c2ccc(OCCCO)cc2)O[C@H]1c1ccccc1N=[N+]=[N-]` has composite z-score reaching or exceeding 0.03? condition met

Is it the case that `O=c1oc(-c2ccccc2)nc2cc(Br)ccc12` has composite z-score reaching or exceeding 0.03? condition met

Is it the case that COc1ccc(C(O)C2C=CC3C(=O)N(C)C(=O)C3N2Nc2ccccc2)cc1OCc1ccccc1 (stereo not drawn) has composite z-score reaching or exceeding 0.03? condition met

Is it the case that O=C1OCCC=C[C@H]2OC34C=CCN(c5ccc6ccccc6c5)C(=O)[C@H]3N(CCCCCO)C(=O)[C@@H]4C12 (stereo partly drawn) has composite z-score reaching or exceeding 0.03? condition not met

Is it the case that O=C1OCCC=C[C@H]2OC34C=CCN(Cc5ccccc5)C(=O)[C@H]3N(CCCO)C(=O)[C@@H]4C12 (stereo partly drawn) has composite z-score reaching or exceeding 0.03? condition not met

Is it the case that `COc1cc(CO)ccc1OC(C)=O` has composite z-score reaching or exceeding 0.03? condition met

* * *

test system: Noggin (protein binding on small-molecule microarray); experiment: Noggin binders on small-molecule microarray, primary screen, biochemical, 635/667 nm fluorescence (AID 1095); conditions: 635 nm fluorescence, higher = more signal;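 note: score merges 667 nm feature fluorescence with signal to noise over triplicate slides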
// condition not met strictly below 0.1 in composite z-score; condition met otherwise

Please review the entries below; each comes with its answer.
compound: C=CC[C@@]1(C(=O)O)N=C(c2ccc(OCCCO)cc2)O[C@@H]1c1ccccc1N=[N+]=[N-]
qualitative_label: condition not met
--
compound: COC(=O)[C@@]1(Cc2ccc(OC)cc2)[C@H]2c3cc(C(=O)N4CCCC4)n(Cc4cc(F)cc5c4OCOC5)c3C[C@H]2CN1C(=O)c1ccccc1
qualitative_label: condition not met
--
compound: CCC(CC)C(O)C1C=CC2C(=O)N(c3ccccc3)C(=O)C2N1Nc1ccc(C#N)cc1 (centres undefined)
qualitative_label: condition not met

Is it the case that `[N-]=[N+]=NCc1ccccc1C[C@]1(C(=O)O)N=C(c2ccc(OCCCO)cc2)O[C@H]1c1ccccc1` has composite z-score reaching or exceeding 0.1? condition not met

Is it the case that `Cc1ccc(S[C@]2(C(=O)NC3CC3)CC(=O)N(C3CCCCC3)[C@@H]2c2ccc(CO)cc2I)cc1` has composite z-score reaching or exceeding 0.1? condition met

Is it the case that `O=C/C=C/c1ccc(Cl)cc1` has composite z-score reaching or exceeding 0.1? condition not met

Is it the case that `CCCN1C(=O)[C@]2(COC(c3ccc(OCCCO)cc3)=N2)Cc2ccccc21` has composite z-score reaching or exceeding 0.1? condition met

Is it the case that `COc1c(C)cc(-c2cc3c(c(-c4ccc(Oc5ccccc5)cc4)n2)[Si](C(C)C)(C(C)C)OC3)cc1C` has composite z-score reaching or exceeding 0.1? condition met

Is it the case that C#CCN(C(/C=C/c1ccccc1)CO)C(C(=O)O)c1ccccc1 (centres undefined) has composite z-score reaching or exceeding 0.1? condition met

* * *

system: Sam68 (KHDRBS1); experiment: Sam68 small-molecule binders, primary screen, biochemical, small-molecule microarray, 635 nm fluorescence (AID 1125); conditions: small-molecule microarray binding, higher = more signal;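 note: score merges 667 nm channel intensity with signal to noise over triplicate slides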
quantity_name: composite z-score
Numbers only.

compound: N#Cc1ccc(NN2C(C(O)c3cccs3)C=CC3C(=O)N(c4ccccc4)C(=O)C32)cc1 (stereo not given)
data_value: 1.01
--
compound: O=C1O[C@H](c2ccccc2)[C@H](c2ccccc2)N2[C@H]1[C@@H](C(=O)NC[C@H](O)c1ccccc1)[C@]1(C(=O)Nc3ccc(C#CCCO)cc31)[C@H]2c1ccc(O)cc1
data_value: -0.317

Would you be so kind as to report composite z-score for each listed record?
1. CC(=O)NCCCC[C@@H]1NC(=O)[C@@H]2C[C@H](C(=O)NCCCCCCNC(=O)CS)[C@H](c3ccc(O)cc3)N2C1=O
2. COc1ccc([Si](C)(C)[C@H]2[C@H](CCn3cc(CCO)nn3)O[C@@]3(C(=O)N(Cc4ccc(N5CCOC5=O)cc4)c4ccccc43)[C@@H]2C)cc1
3. O=C1O[C@@H](c2ccccc2)[C@@H](c2ccccc2)N2[C@@H](c3ccccc3OCCO)[C@]3(C(=O)Nc4ccc(C#CC5(O)CCCCCC5)cc43)[C@@H](C(=O)Nc3nc4ccccc4s3)[C@H]12
4. CC(C)C[C@@H]1NC(=O)[C@@H]2C[C@H](C(=O)NCCCCCC[N+](C)(C)C)[C@H](c3ccc(O)cc3)N2C1=O
5. C[C@]1(C(=O)NCc2ccccc2)c2ccccc2C(=O)N(Cc2cc(F)cc(C(F)(F)F)c2)[C@H]1c1ccc(CO)cc1

[0.464, 1.23, 1.02, 1.25, -0.763]

Would you be so kind as to report composite z-score for each listed record?
1. CCOC(=O)[C@H]1C[C@H]2O[C@@]23C[C@H]1C(=O)N1CCCC1[C@@H]3O[Si](C)(C)C(C)(C)C (stereo not given in full)
2. C=C(COC)C(=O)CC[C@@H](OC(=O)c1cccnc1)c1ccc(CO)o1
3. CC(=O)Nc1cc(Br)ccc1C(=O)O
4. O=C1O[C@@H](c2ccccc2)[C@@H](c2ccccc2)N2[C@@H](c3ccc(O)cc3)[C@]3(C(=O)Nc4ccc(C#CC5=CCCCC5)cc43)[C@@H](C(=O)O)[C@H]12
5. CCCNC(=O)[C@@]1(c2ccc([N+](=O)[O-])cc2)CC(=O)N(CC23CC4CC(CC(C4)C2)C3)[C@@H]1c1ccc(CO)cc1
6. CC(C)=CCCC(C)=CC(O)C1C=CC2C(=O)N(c3ccccc3)C(=O)C2N1Nc1ccccc1 (stereo not given)
7. CS(=O)(=O)CCOC(=O)C1=CC(CCCO)=CC(c2cccs2)N(Cc2cc3c(cc2Br)OCO3)C=C1C(=O)OCCS(C)(=O)=O (stereo not given)
8. C=CC(COC(C)=O)NS(=O)(=O)c1ccc(Br)cc1 (stereo not given)

1. -0.445
2. 0.532
3. 0.402
4. 1.32
5. 0.591
6. 1.27
7. 1.3
8. 0.591

* * *

Would you mind telling me the reported z-score of each entry?
experiment: osmotic lysis modulators in infected erythrocytes, primary screen, PSAC antagonist project, cell-based, P. falciparum Indochina, OD700, 3 h (AID 1156); settings: higher = more signal, called active from +8 up or from −8 down
One number for each entry.

Would you be so kind as to report z-score for each listed record?
1. Cc1cc(C)c(C(O)C2C=CC3C(=O)N(c4ccccc4)C(=O)C3N2Nc2ccc(C#N)cc2)c(C)c1 (configuration not stated)
2. CCN(CC)c1ccc(N2CC=CC34O[C@@H]5/C=C\CCCOC(=O)C5[C@H]3C(=O)N(C(CO)C(C)C)[C@@H]4C2=O)cc1 (some centres not stated)
3. CC(C)c1ccc(NN2C(C(O)c3cccc(O)c3)C=CC3C(=O)N(c4ccccc4)C(=O)C32)cc1 (configuration not stated)
4. CN1CCC(CCCO)=CC1c1ccc(CN2CCCC2)cc1 (configuration not stated)
5. CCOC(=O)C[C@H]1[C@H](OC(=O)c2ccc(-c3ccccc3)cc2)[C@@H](NC(=O)c2ccc3ccccc3c2)c2cc(OCCCO)ccc2N1C(=O)Cc1ccc(OC)cc1
6. CCCCC(CC)C(O)C1C=CC2C(=O)N(c3ccccc3)C(=O)C2N1Nc1ccccc1 (configuration not stated)
7. COCCCNC(=O)[C@@]1(CCC(=O)OC(C)(C)C)N=C(c2ccc(OCCCO)cc2)O[C@H]1c1ccccc1CN=[N+]=[N-]
8. O=c1cccc(CCc2ccccc2)o1

[0.742, 0.883, 1.5, -0.0797, 1.21, 2.18, 1.35, -0.13]

Would you be so kind as to report z-score for each listed record?
1. COC(=O)[C@@]1(Cc2ccc(OC)cc2)[C@H]2c3cc(C(=O)N4CCCC4)n(Cc4cc(F)cc5c4OCOC5)c3C[C@H]2CN1C(=O)c1ccccc1
2. COc1ccc(CCNC(=O)[C@@H]2c3ccccc3C(=O)N(Cc3ccc(OC(F)(F)F)cc3)[C@H]2c2ccc(CO)cc2)cc1
3. COC(=O)[C@]1(Cc2ccccc2N=[N+]=[N-])N=C(c2ccc(OCCCO)cc2)O[C@@H]1c1ccccc1N=[N+]=[N-]

1: 0.951; 2: 2; 3: -0.495

Provenance of the data: PubChem BioAssay
